system: A549; assay: Antiproliferative activity against human A549 cells by MTS based Cell Titer 96 viability assay; assay type: functional
quantityMeasured: IC50 (µM)
Output spec: scalar in µM, unitless text.

query: Report measured IC50; entry is CCOC(=O)N1CCc2c(sc3nc(SCC(=O)c4ccccc4)n(N)c(=O)c23)C1
result: 17.8

---

# pIC50 annotations
molecular target: Proto-oncogene tyrosine-protein kinase Src (Homo sapiens)
Sequence (P12931 2-536 limits assumed): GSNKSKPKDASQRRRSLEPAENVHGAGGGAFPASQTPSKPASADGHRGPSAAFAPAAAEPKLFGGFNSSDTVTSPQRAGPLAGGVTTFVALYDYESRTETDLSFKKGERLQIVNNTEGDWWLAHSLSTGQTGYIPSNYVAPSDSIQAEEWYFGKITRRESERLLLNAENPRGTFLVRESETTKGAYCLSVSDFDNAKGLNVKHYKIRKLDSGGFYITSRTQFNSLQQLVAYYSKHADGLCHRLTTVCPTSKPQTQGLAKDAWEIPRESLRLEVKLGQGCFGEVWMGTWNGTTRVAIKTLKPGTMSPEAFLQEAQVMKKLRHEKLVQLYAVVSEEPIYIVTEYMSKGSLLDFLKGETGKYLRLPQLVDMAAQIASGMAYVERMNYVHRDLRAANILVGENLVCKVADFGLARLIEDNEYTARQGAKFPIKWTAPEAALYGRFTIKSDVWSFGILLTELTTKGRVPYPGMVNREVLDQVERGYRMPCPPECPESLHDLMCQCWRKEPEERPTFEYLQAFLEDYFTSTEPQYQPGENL
The quantity pIC50 is defined as the negative base-10 logarithm of the molar concentration.

Worked cases, pIC50 given:
inputSmiles	pIC50
CCN(CC)CCOc1ccc(Nc2ncc3c(C)c(-c4c(C)cccc4C)c(=O)n(C)c3n2)cc1	6.44
Cc1cccc(C)c1-c1cc2cnc(Nc3ccccc3)nc2n(C)c1=O	7.85

query: # assay system Proto-oncogene tyrosine-protein kinase Src (Homo sapiens): give pIC50 of Cn1c(=O)c(-c2c(Cl)cccc2Cl)cc2cnc(Nc3ccc(CC(N)=O)cc3)nc21
result: 7.89
